Assay: Trypanosoma cruzi growth suppression in host cells – NIH3T3 host cells, beta-gal luminescence, confirmation (AID 2044);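 note: intracellular parasites grown in NIH/3T3 mouse fibroblasts as host cells; luminescent beta-galactosidase reporter signal from transgenic T. cruzi replicating inside host cells; inhibitors lower the luminescence signal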
Type: functional, cell-based
Activity calls are given as the source filed them.
Parameter: EC50

Entry Cc1ccc2cc(C(c3nnnn3C3CCCC3)N(Cc3ccco3)Cc3cccs3)c(O)nc2c1 (centres undefined) , EC50 reported as 3200 nM (active)

The reported EC50 of the molecule `Cc1cccc(CSc2nc(N)c(C#N)c(-c3cccs3)c2C#N)c1` was 2310 nM (active)

Measured EC50 of C(=C1/CCCC2=C1Nc1ncnn1C2c1ccccc1)/c1ccccc1 (centres undefined) : 3450 nM (active)

Quick note, EC50 for CCOC(=O)C1=C(c2ccccc2)N=c2s/c(=C\c3cc(OC)c(OC)c(OC)c3)c(=O)n2C1c1cccs1 (centres undefined) landed at 1290 nM (active)

====

Biological target: Peroxisome proliferator-activated receptor gamma/Nuclear receptor coactivator 1 (Homo sapiens, UniProt P37231);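 note: agonist potency as compounds enhance coactivator SRC-1 recruitment to PPARgamma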
Sequence (P37231 whole entry): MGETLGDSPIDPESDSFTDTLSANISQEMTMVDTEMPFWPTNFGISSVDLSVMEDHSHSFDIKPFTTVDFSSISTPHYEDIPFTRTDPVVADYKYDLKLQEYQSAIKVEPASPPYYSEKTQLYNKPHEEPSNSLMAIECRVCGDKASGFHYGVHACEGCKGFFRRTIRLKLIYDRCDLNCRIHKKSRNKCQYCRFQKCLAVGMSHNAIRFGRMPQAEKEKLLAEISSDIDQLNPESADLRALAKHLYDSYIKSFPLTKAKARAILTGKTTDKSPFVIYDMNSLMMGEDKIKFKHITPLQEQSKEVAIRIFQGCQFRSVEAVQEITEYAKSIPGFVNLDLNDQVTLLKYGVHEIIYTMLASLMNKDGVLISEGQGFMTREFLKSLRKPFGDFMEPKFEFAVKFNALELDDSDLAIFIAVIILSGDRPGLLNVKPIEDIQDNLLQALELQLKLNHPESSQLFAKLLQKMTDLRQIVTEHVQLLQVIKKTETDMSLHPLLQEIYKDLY
Sequence (Q15788 whole entry, further chain): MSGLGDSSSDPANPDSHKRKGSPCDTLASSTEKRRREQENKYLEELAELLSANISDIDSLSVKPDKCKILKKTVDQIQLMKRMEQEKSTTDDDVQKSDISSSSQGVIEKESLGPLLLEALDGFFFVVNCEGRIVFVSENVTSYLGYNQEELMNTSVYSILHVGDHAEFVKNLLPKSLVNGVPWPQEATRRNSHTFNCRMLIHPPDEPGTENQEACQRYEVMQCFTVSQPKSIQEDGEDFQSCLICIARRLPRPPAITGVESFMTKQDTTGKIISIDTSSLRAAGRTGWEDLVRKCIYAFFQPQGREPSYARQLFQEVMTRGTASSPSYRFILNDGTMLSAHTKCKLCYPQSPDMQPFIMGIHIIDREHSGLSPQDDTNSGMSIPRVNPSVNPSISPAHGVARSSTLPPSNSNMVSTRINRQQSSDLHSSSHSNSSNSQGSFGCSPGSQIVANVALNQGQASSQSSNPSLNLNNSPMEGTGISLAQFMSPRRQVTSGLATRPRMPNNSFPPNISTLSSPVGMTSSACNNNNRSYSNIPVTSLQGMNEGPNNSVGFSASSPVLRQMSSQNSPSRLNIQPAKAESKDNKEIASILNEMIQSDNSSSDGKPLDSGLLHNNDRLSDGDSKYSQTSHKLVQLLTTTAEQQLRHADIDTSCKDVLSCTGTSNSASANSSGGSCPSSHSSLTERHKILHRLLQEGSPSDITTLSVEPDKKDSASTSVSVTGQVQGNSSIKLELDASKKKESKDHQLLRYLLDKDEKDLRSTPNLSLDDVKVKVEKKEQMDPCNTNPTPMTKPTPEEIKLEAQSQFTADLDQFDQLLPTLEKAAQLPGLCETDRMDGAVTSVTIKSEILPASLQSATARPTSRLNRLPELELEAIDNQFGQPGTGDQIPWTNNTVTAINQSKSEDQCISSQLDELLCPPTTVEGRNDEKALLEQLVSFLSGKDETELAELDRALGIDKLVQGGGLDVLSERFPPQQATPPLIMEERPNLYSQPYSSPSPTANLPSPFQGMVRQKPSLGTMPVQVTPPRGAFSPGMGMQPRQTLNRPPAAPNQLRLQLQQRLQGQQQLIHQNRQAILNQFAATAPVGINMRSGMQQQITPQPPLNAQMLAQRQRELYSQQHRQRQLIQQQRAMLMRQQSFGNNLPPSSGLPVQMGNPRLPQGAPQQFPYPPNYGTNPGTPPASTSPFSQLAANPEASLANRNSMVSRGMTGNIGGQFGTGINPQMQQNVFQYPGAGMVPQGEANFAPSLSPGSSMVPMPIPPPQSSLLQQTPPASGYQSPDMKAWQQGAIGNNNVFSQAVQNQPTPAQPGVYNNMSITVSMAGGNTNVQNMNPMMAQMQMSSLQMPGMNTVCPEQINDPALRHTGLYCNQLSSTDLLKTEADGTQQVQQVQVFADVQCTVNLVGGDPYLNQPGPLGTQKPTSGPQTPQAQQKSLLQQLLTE
Format: functional
Parameter: EC50

Value of measured EC50 for the entry `CCOc1cccc2cc(C(=O)Nc3cc(C)on3)c(=O)oc12` : 24.6 µM (not active)

compound CC(OC(=O)c1cc2sccc2n1C)C(=O)NCc1cccs1 (stereo not drawn) , EC50 observed: > 79.4 µM (not active)

Lab note: measured EC50 of `COc1ccc(-c2cc(-c3cccs3)c(C#N)c(SCC(=O)NCc3ccccc3OC)n2)cc1` was 10.3 µM (not active)

====

Give AC50 for every item shown.
Target: Cytochrome P450 1A2 (Homo sapiens, UniProt P05177);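 note: PubChem cytochrome P450 panel assay, CYP1A2 panel member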
Sequence (P05177 whole entry): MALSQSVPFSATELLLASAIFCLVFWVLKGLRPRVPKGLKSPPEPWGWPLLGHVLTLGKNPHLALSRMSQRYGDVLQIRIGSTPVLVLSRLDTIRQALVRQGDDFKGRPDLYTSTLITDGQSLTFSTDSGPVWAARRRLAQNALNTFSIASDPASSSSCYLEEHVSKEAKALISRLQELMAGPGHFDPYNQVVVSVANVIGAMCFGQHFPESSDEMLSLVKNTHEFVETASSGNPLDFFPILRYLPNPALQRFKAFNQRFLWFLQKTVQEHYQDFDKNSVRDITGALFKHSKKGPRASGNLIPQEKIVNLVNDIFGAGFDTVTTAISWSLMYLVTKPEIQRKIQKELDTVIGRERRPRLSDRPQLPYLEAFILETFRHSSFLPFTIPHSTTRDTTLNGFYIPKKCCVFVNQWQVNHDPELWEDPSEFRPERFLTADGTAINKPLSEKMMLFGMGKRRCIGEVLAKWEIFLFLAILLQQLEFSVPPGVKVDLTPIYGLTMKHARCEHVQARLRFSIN

Record CCOc1ccc(N2C(=O)C3C4C=CC(CC4)C3C2=O)c([N+](=O)[O-])c1 (stereo unspecified) ; system Cytochrome P450 1A2 (Homo sapiens, UniProt P05177); AC50 = 25.1 µM (inconclusive)

Observed AC50 on Cytochrome P450 1A2 (Homo sapiens, UniProt P05177), entry `O=C(Nc1ccccc1)/C(=C\c1ccncc1)NC(=O)c1ccccc1` , equals 15.8 µM (inconclusive)

Entry `CC(=O)Nc1sc2c(c1CN1CCN(C)CC1)CCCC2` , tested on Cytochrome P450 1A2 (Homo sapiens, UniProt P05177), has a reported AC50 of 17.8 µM (inconclusive)

Readout AC50 for `COc1ccc(C(=O)N2CCC3(CC2)CCN(c2cccc(-c4ccccc4)c2)CC3)cc1` , test system Cytochrome P450 1A2 (Homo sapiens, UniProt P05177), was 25.1 µM (inconclusive)

Item: `CCOc1ccc(NC(=O)c2ccc(OC)cc2)cc1` | System: Cytochrome P450 1A2 (Homo sapiens, UniProt P05177) | AC50: 20 µM (inconclusive)

Test item Cc1cc(C)n(CC(O)COc2ccccc2)n1 (stereo unspecified) ; Cytochrome P450 1A2 (Homo sapiens, UniProt P05177); reported AC50 was 15.8 µM (inconclusive)

Field AC50 (Cytochrome P450 1A2 (Homo sapiens, UniProt P05177)), entry `COc1ccc(C(F)(F)F)cc1N/C=C\c1nnnn1-c1ccccc1` : 1.41 µM (inconclusive)

Readout AC50 for `C=CCn1c(=O)c2c(nc(Br)n2Cc2ccccc2Cl)n(C)c1=O` , test system Cytochrome P450 1A2 (Homo sapiens, UniProt P05177), was 15.8 µM (inconclusive)

The recorded AC50 with Cytochrome P450 1A2 (Homo sapiens, UniProt P05177) for `Cc1c(C(=O)NCCC2=CCCCC2)cccc1[N+](=O)[O-]` was 15.8 µM (inconclusive)

`CCSc1nnc(NC(=O)CSc2nc3c(cc2C#N)CCCC3)s1` tested on Cytochrome P450 1A2 (Homo sapiens, UniProt P05177) gave AC50: 15.8 µM (inconclusive)

Entry `O=C(Nc1nnc(SCc2ccc(Cl)cc2)s1)c1ccco1` , Cytochrome P450 1A2 (Homo sapiens, UniProt P05177) data, AC50 value: 3.16 µM (inconclusive)

Source listed as ChEMBL document CHEMBL1201862.
